- Test system: SW620 cells (K-Ras G12V)
- assayNotes: Phospho-ERK1/2(THR202/TYR204) HTRF assay, SW620
- Assay type: cell-based
- conditionSet: Homo sapiens, SW-620, 2 hours incubation, read-out: pERK, IC50, SW620
measuredEndpoint: IC50 (nM)
Output spec: scalar in nM, unitless text.

{"smilesStr": "C#Cc1c(F)ccc2cc(N)cc(-c3nc4c5c(nc(OC[C@@]67CCCN6C[C@H](F)C7)nc5c3F)N3CCCOC[C@H]3CO4)c12", "unitAbbrev": "nM", "IC50": 4.43}
{"smilesStr": "C#Cc1c(F)ccc2cc(N)cc(-c3nc4c5c(nc(OC[C@@]67CCCN6C[C@H](F)C7)nc5c3F)N3[C@@H](CC)CCOC[C@H]3N4C)c12", "unitAbbrev": "nM", "IC50": 1.71}

As a next step, examine the compound that follows.
For "C#Cc1c(F)ccc2cc(N)cc(-c3nc4c5c(nc(OC[C@@]67CCCN6C[C@H](F)C7)nc5c3F)N3CCC=CC[C@H]3C4=C)c12" , what is its reported IC50? 8.74

----------
- assayedTarget: GDP-KRAS G12D (Homo sapiens, UniProt P01116, G12D)
- Sequence (P01116 1-169 isoform P01116-2 G12D): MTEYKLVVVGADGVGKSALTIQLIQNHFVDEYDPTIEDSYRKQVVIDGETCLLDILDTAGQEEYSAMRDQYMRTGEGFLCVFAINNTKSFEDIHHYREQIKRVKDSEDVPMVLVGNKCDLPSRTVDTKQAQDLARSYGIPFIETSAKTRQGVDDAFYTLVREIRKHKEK
- assayNotes: SOS1 catalyzed nucleotide exchange assay, GDP-KRAS G12D
- conditionSet: read-out: Biochemical assays, IC50, KRAS G12D GDP, GDP form K-Ras G12D, TR-FRET
measuredEndpoint: log10(IC50) (log10 of the value in nM)
Quick note: numbers are log10 of IC50, with nM as the unit.

For C#Cc1c(F)ccc2cc(N)cc(-c3nc4c5c(nc(OCC67CCCN6CC(F)C7)nc5c3F)N3CCCCCC3CO4)c12 (stereo not drawn) [Compound 27B] , what is its reported log10(IC50)? 0.40

Also need N#Cc1c(N)sc2c(F)ccc(-c3c(Cl)c4c5c(nc(OCC67CCCN6CC(F)C7)nc5c3F)N3CCCOCC3CO4)c12 (single isomer, unassigned) [Compound 66B] , thanks. -0.01

Also need C#Cc1c(F)ccc2cc(N)cc(-c3nc4c5c(nc(OC[C@@]67CCCN6C[C@H](F)C7)nc5c3F)N3CCC=C[C@H](F)[C@H]3N4C)c12 [Compound 108A] , thanks. 0.52

----------
- assayedTarget: GDP-KRAS G12V (Homo sapiens, UniProt P01116, G12V)
- Sequence (P01116 1-169 isoform P01116-2 G12V): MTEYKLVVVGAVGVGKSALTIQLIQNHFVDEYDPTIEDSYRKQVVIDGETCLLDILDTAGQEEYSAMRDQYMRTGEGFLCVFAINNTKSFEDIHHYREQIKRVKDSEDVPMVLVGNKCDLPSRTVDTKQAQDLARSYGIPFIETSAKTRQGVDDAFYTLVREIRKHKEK
- assayNotes: biochemical
pIC50: −log10 of the molar value.
If the reported pIC50 equals or exceeds 8, assign T. If not, assign F.

{"molecule": "C#Cc1c(F)ccc2cc(N)cc(-c3nc4c5c(nc(OCC(CN6CCOCC6)OC)nc5c3F)N3CCCOCC3N4C)c12 (stereo not drawn)", "group": "F"}
{"molecule": "C#Cc1c(F)ccc2cc(N)cc(-c3nc4c5c(nc(OC[C@@]67CCCN6C[C@H](F)C7)nc5c3F)N3[C@@H](C)CCOC[C@H]3N4C3CC3)c12", "group": "T"}
{"molecule": "C#Cc1c(F)ccc2cc(N)cc(-c3nc4c5c(nc(OC[C@@]67CCCN6C[C@H](F)C7)nc5c3F)N3CC(F)CC[C@H](F)[C@H]3N4C)c12 (stereo partly drawn)", "group": "T"}
{"molecule": "C#Cc1c(F)ccc2cc(N)cc(-c3nc4c5c(nc(OC[C@@]67CCCN6C[C@H](F)C7)nc5c3F)N3CCOCCC3N4C)c12 (stereo partly drawn)", "group": "T"}
{"molecule": "C#Cc1c(F)ccc2cc(N)cc(-c3nc4c5c(nc(OC[C@@H]6CCN6CC(F)F)nc5c3F)N3CCCOC[C@H]3CO4)c12", "group": "F"}
{"molecule": "C[C@H]1CCOC[C@H]2COc3c(Cl)c(-c4ccc(F)c5sc(N)c(C#N)c45)c(F)c4nc(OC[C@@]56CCCN5C[C@H](F)C6)nc(c34)N21 (atropisomer, axis not shown) [Compound 158A]", "group": "T"}

Then there is this molecule:
Please check the record C#Cc1c(F)ccc2cc(N)cc(-c3nc4c5c(nc(OC[C@@]67CCCN6C[C@H](F)C7)nc5c3F)N3C(CCCC[C@@H]3C(C)O)N4C)c12 (stereo partly drawn) and state if its pIC50 is at or above 8. T
